Test: Stability toward liver microsome incubation
Assay type: in vitro ADME
quantity-name: stability (toward liver microsome incubation)

{"compound": "Oc1c(C(Nc2ncc(C(F)(F)F)cc2F)c2ccc(Cl)cc2Cl)ccc2cccnc12 (centres unmarked) [AD4-13165]", "result": "increased stability"}
{"compound": "Cc1cc(Cl)cnc1NC(c1ccc(C(F)(F)F)cc1F)c1ccc2cccnc2c1O (centres unmarked) [AD4-13042]", "result": "increased stability"}
{"compound": "Cc1nc(NC(c2ccc(Cl)cc2Cl)c2ccc3cccnc3c2O)c(Cl)cc1Cl (centres unmarked) [AD4-13206]", "result": "increased stability"}

---

Target: p53/MDM2 binding (full length MDM2) (Homo sapiens (Human), UniProt Q00987)
Sequence (Q00987 whole entry): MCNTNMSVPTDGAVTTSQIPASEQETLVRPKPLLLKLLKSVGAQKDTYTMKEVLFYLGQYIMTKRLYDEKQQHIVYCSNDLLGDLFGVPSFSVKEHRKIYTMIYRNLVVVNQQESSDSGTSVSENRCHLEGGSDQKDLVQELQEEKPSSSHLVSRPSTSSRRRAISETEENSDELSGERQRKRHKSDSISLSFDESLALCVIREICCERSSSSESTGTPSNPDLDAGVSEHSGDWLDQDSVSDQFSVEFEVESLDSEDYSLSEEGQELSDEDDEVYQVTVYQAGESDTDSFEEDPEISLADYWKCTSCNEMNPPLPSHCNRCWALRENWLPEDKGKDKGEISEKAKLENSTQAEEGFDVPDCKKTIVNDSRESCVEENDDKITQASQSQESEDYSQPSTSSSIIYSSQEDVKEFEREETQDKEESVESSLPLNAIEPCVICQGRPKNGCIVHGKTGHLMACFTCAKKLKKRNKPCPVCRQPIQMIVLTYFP
Experiment: AlphaScreen p53/MDM2 binding with full length GST-MDM2
Details: FIG. 1, read-out: inhibition of p53/MDM2 binding EC50
Give measured EC50 for each item. Keep answers brief.
Answers are plain numbers, in µM.

{"compound": "Cc1ccnc(NC(c2ccc3cccnc3c2O)c2sccc2C)c1 (centres unmarked)", "result-units": "µM", "EC50": 0.1}

Which EC50 value is on record for COc1ccc(C(Nc2cc(C)ccn2)c2ccc3cccnc3c2O)cc1O (centres unmarked) ? 0.27
